Molecular target: T1, BALBc mouse SIRP-α (mouse (BALB/c strain))
T1 chain: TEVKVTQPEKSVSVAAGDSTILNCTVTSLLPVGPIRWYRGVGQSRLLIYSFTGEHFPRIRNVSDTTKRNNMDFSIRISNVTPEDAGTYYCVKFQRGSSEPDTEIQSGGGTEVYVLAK
Assay: SPR
Let's look at some binders and their measured koff.

>  <BINDER>
Hum1/AB21_HC_wt (antibody, V domains shown) VH: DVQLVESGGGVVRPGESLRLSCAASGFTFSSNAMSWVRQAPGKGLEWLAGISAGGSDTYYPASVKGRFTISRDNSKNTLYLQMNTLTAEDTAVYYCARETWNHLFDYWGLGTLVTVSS VL: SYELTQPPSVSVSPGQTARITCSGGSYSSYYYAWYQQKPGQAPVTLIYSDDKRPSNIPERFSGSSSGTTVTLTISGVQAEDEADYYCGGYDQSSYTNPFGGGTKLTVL

>  <UNIT TEXT>
s⁻¹

>  <koff>
0.00291

$$$$
>  <BINDER>
antibody 21 (antibody, V domains shown, also called AB21; S21) VH: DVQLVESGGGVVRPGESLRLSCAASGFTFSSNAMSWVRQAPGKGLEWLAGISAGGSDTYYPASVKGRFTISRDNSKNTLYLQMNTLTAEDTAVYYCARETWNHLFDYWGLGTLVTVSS VL: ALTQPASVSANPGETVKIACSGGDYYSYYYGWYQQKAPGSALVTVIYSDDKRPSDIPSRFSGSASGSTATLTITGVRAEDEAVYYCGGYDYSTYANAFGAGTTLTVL

>  <UNIT TEXT>
s⁻¹

>  <koff>
0.00241

$$$$
>  <BINDER>
Hum3/AB27_HC_wt (antibody, V domains shown) VH: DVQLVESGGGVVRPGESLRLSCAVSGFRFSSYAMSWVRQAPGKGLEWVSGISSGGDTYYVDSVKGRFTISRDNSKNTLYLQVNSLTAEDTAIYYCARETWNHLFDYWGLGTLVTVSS VL: SYELTQPPSVSVSPGQTARITCSGGDYYSTYYAWYQQKPGQAPVTVIHSDDKRPSDIPERFSGSSSGTTVTLTISGVQAEDEADYYCGGYDGRTYINTFGGGTKLTVL

>  <UNIT TEXT>
s⁻¹

>  <koff>
0.000202

$$$$
